Each recorded value in this set is attributed to ChEMBL document CHEMBL2150939.

- Tested on: Bcap37
- PROCEDURE_DETAILS: Antiproliferative activity against human Bcap37 cells after 72 hrs by MTT assay
- Assay type: functional, cell-based
- SETUP_CONDITIONS: Bcap37, 72 h, read-out: IC50
Reported IC50 values are given for each entry in this list.

Answer with the recorded IC50 of `C[C@H]1[C@H](C)CC[C@]2(C(=O)OCCN3CCN(C(=O)c4ccc(F)cc4F)CC3)CC[C@]3(C)C(=CC[C@@H]4[C@@]5(C)CC[C@H](O)C(C)(C)[C@@H]5CC[C@]43C)[C@H]12` only.
8.31 µM

Hello, please tell me recorded IC50 for this one: `C[C@H]1[C@H](C)CC[C@]2(C(=O)OCCN3CCN(C(=O)c4ccccc4Cl)CC3)CC[C@]3(C)C(=CC[C@@H]4[C@@]5(C)CC[C@H](O)C(C)(C)[C@@H]5CC[C@]43C)[C@H]12`
7.26 µM

For `Cc1ccccc1C(=O)N1CCN(CCOC(=O)[C@]23CC[C@@H](C)[C@H](C)[C@H]2C2=CC[C@@H]4[C@@]5(C)CC[C@H](O)C(C)(C)[C@@H]5CC[C@@]4(C)[C@]2(C)CC3)CC1` , write its IC50.
5.34 µM

For the compound `C[C@H]1[C@H](C)CC[C@]2(C(=O)OCCN3CCN(C(=O)c4ccc(F)cc4)CC3)CC[C@]3(C)C(=CC[C@@H]4[C@@]5(C)CC[C@H](O)C(C)(C)[C@@H]5CC[C@]43C)[C@H]12` , report IC50.
5.12 µM

Query IC50 for CC[C@@]1(O)C(=O)OCc2c1cc1n(c2=O)Cc2cc3cc(O)ccc3nc2-1 [HYDROXYCAMPTOTHECIN]
> 20 µM

For the next question, use this compound.
Name the recorded IC50 of the item `C[C@H]1[C@H](C)CC[C@]2(C(=O)OCCN3CCN(C(=O)Cc4ccc(Cl)cc4)CC3)CC[C@]3(C)C(=CC[C@@H]4[C@@]5(C)CC[C@H](O)C(C)(C)[C@@H]5CC[C@]43C)[C@H]12` in your answer.
10 µM

====

- PROCEDURE_DETAILS: Growth inhibition of mouse NIH/3T3 cells at 10 uM after 72 hrs by MTT assay
- Format: cell-based, NIH3T3
- SETUP_CONDITIONS: read-out: GI
MEASUREMENT_LABEL: inhibition at 72 h, 10 µM (%)
Kindly answer with a numeric value in %, unit omitted.

Please report the measured inhibition at 72 h, 10 µM for `C[C@H]1[C@H](C)CC[C@]2(C(=O)OCCN3CCN(C(=O)c4cc(Cl)ccc4[N+](=O)[O-])CC3)CC[C@]3(C)C(=CC[C@@H]4[C@@]5(C)CC[C@H](O)C(C)(C)[C@@H]5CC[C@]43C)[C@H]12`
77.7

---
Quickly give me recorded inhibition at 72 h, 10 µM for `C[C@H]1[C@H](C)CC[C@]2(C(=O)OCCN3CCN(C(=O)c4c(Cl)cccc4Cl)CC3)CC[C@]3(C)C(=CC[C@@H]4[C@@]5(C)CC[C@H](O)C(C)(C)[C@@H]5CC[C@]43C)[C@H]12`
32.1

Annotate the compound `Cc1ccccc1C(=O)N1CCN(CCOC(=O)[C@]23CC[C@@H](C)[C@H](C)[C@H]2C2=CC[C@@H]4[C@@]5(C)CC[C@H](O)C(C)(C)[C@@H]5CC[C@@]4(C)[C@]2(C)CC3)CC1` with its measured inhibition at 72 h, 10 µM.
60.3
